target: Escherichia coli RppH (Escherichia coli, UniProt P0A776); test: Competition experiments: inhibition of RNA hydrolysis by nucleotides; type: biochemical; parameters: 0.1 mM substrate and 1 μM full-length RppH in case of nucleotides; decahistidine (N, cleaved yes); SUMO (N, cleaved yes); made in house; host or cells: E. coli BL21(DE3); details: 0.1 mM ppAG RNA, nucleotide 0.1-5.0 mM, 10 mM Mg2+, pH 7.5, 10 min; n = 2, mean ± SE; GTP value estimated from a smooth curve; read-out: IC50, inhibition of RppH reactivity with ppAG RNA
Sequence (P0A776 whole entry): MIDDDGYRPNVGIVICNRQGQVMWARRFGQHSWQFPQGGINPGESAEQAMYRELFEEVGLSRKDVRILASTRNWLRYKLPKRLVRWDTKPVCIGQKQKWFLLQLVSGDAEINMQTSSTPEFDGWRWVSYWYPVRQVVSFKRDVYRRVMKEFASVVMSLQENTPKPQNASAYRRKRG
pIC50: −log10 of the molar value.
MEASURED QUANTITY: pIC50

Query block: # pIC50 lookup, item Nc1nc2c(ncn2[C@@H]2O[C@H](COP(=O)(O)OP(=O)(O)O)[C@@H](O)[C@H]2O)c(=O)[nH]1 [GDP]
Result block: ~4.23

----------
target: Escherichia coli RppH (Escherichia coli, UniProt P0A776); test: Competition experiments: inhibition of RNA hydrolysis by nucleotides; type: biochemical; design: 0.1 mM substrate and 1 μM full-length RppH in case of nucleotides; decahistidine (N, cleaved yes); SUMO (N, cleaved yes); made in house; host or cells: E. coli BL21(DE3); conditions: concentration to achieve 2-fold inhibition of the reaction of RppH with ppAG, ppAG RNA
pIC50: −log10 of the molar value.
MEASURED QUANTITY: pIC50

Query block: # pIC50 lookup, item Nc1nc2c(ncn2[C@@H]2O[C@H](COP(=O)(O)OP(=O)(O)OP(=O)(O)O)[C@@H](O)[C@H]2O)c(=O)[nH]1 [GTP, guanosine triphosphate]
Result block: ~2.39

----------
target: Escherichia coli RppH (Escherichia coli); type: biochemical; design: 0.1 mM substrate and 1 μM full-length RppH in case of nucleotides; decahistidine (N, cleaved yes); SUMO (N, cleaved yes); made in house; host or cells: E. coli BL21(DE3); settings: nucleotide substrate 0.1 mM, 1 μM full-length RppH, pH 7.5, 10 mM MgCl2, 37°C; linear regression, n = 2, error is SE
MEASURED QUANTITY: initial reaction rate of hydrolysis by RppH

Nc1nc2c(ncn2[C@@H]2O[C@H](COP(=O)(O)OP(=O)(O)OP(=O)(O)O)[C@@H](O)[C@H]2O)c(=O)[nH]1 [GTP, guanosine triphosphate] : 3.1 ± 0.13 µM/min

Query block: # initial reaction rate of hydrolysis by RppH lookup, item Nc1nc2c(ncn2[C@@H]2O[C@H](COP(=O)(O)OP(=O)(O)O)[C@@H](O)[C@H]2O)c(=O)[nH]1 [GDP]
Result block: 3.4 ± 0.07 µM/min

Query block: # initial reaction rate of hydrolysis by RppH lookup, item Nc1ncnc2c1ncn2[C@@H]1O[C@H](COP(=O)(O)OP(=O)(O)OP(=O)(O)O)[C@@H](O)[C@H]1O [ATP, adenosine triphosphate]
Result block: 4.2 ± 0.24 µM/min

Query block: # initial reaction rate of hydrolysis by RppH lookup, item Nc1nc2c(ncn2[C@@H]2O[C@H](COP(=O)(O)OP(=O)(O)O)[C@@H](OP(=O)(O)OP(=O)(O)O)[C@H]2O)c(=O)[nH]1 [ppGpp]
Result block: 1.20 ± 0.07 µM/min

Query block: # initial reaction rate of hydrolysis by RppH lookup, item Nc1nc2c(ncn2[C@@H]2O[C@H](COP(=O)(O)OP(=O)(O)OP(=O)(O)O)[C@@H](OP(=O)(O)OP(=O)(O)O)[C@H]2O)c(=O)[nH]1 [pppGpp]
Result block: 1.30 ± 0.10 µM/min
